Data provenance: patent US20260242478A1

Biological target: Anti-CD28 scFv (VH - linker 1 - VL) (biotinylated (site not stated))
Sequence (scFv, as listed by the source): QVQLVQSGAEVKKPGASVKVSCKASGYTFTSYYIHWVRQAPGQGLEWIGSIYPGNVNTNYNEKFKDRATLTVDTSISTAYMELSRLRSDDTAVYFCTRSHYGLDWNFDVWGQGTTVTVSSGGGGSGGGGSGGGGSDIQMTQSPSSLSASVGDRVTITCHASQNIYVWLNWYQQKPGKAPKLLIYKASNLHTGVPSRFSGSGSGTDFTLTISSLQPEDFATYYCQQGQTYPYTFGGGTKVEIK
Assay: phage binding ELISA on captured anti-CD28 scFv; wells pre-incubated with soluble CD28 protein (competitor)
Where no end group is shown, it is not given here.
Respond with condition met for CD28 scFv signal in presence of CD28 values of 0.1 and above, condition not met for values below.

Solved cases below.
1. QDWCPRHMWSFCFH (peptide, not shown: large carriers, cysteine pairing not given here; also: displayed on phage by fusion to pIII, linker and pIII sequence not given here) [Phage-55 clonal phage peptide]; condition not met
2. MDWCPIALWAECFN (peptide, not shown: large carriers) [Phage-44 clonal phage peptide]; condition met
3. MDWCPRHRWVDCFY (peptide, not shown: large carriers) [Phage-57 clonal phage peptide]; condition met
4. MDWCPMYLWNECFN (peptide, not shown: large carriers) [Phage-65 clonal phage peptide]; condition met

Input: Decide: is the reported value of CD28 scFv signal in presence of CD28 for MDWCPSYLWNECFF (peptide, not shown: large carriers) [Phage-62 clonal phage peptide] equal to or greater than 0.1?
Output: condition met

Input: Decide: is the reported value of CD28 scFv signal in presence of CD28 for MDWCPRDSWHLCFA (peptide, not shown: large carriers) [Phage-59 clonal phage peptide] equal to or greater than 0.1?
Output: condition met

Input: Decide: is the reported value of CD28 scFv signal in presence of CD28 for MHWCPMDQWSNCFN (peptide, not shown: large carriers) [Phage-56 clonal phage peptide] equal to or greater than 0.1?
Output: condition not met
